melting point listing for selected molecules.
Measure: melting point

* O=C(c1ccc(NC(=O)C(O)(C(F)(F)F)C(F)(F)F)cc1)c1ccccn1 | 197 to 200 °C
* COc1ccc(/C=C/c2ncccc2C(=O)O)cc1 | 230 to 233 °C
* COC(CN(C(=O)C(C)C)C(C(=O)O)c1ccccc1)OC (stereo unspecified) | 147 to 149 °C
* CCCCCCCCCCCCCCCC(=O)C1C(=O)CC(C#N)CC1=O (stereo unspecified) | 66 to 69 °C
* CS(=O)(=O)c1ccc(-c2nc(SCc3ccccc3)[nH]c2-c2ccc(F)cc2)cc1 | 155 to 156 °C
* COC(=O)c1ccc(CC(C)NCC(O)c2ccc(O)c(CO)c2)cc1 (stereo unspecified) | 118 to 120 °C
* COC(=O)C(NCC(=O)c1ccccc1)C(C)C (racemic) | 32.5 to 50.8 °C
* CCCc1nc(OC)c(NC(=S)N2CCN(c3cccc(O)c3)CC2)cc1C | 160 to 162 °C
* Nc1nc2c(ncn2COCCOC=O)c(=O)[nH]1 | 225 to 227 °C
* O=C(O)/C=C\C=C(c1ccccc1)c1ccccc1 | 175 to 176 °C
* COc1c(Cl)cc(N=C=S)cc1C(=O)Nc1c(C)cccc1C | 191 to 192 °C
* CCc1nc2c(C)cc(C)nc2n1Cc1ccc(Nc2ccccc2)cc1 | 151 to 152 °C
* Cc1ccc(S(=O)c2nc(Cl)c([N+](=O)[O-])s2)cc1 (stereo unspecified) | 112 °C
* COc1ccc(COCC(O)Cn2ccnc2)cc1 (stereo unspecified) | 96 to 98 °C
* Oc1cc2c(cc1O)OCC(c1ccc3c(c1)OCO3)C2 (stereo unspecified) | 163 to 164 °C
* c1ccc2c(c1)N=C(N1CCNCC1)c1sccc1N2 | 203 to 206 °C
* COc1cc2c(cc1S(=O)(=O)c1ccccc1)[C@@H](N1CCCCC1=O)[C@H](O)C(C)(C)O2 (relative stereo) | 157 to 158 °C
* CCc1nc2c(N)nc3ccccc3c2n1CC#Cc1ccc(OC)cc1 | 179 to 181 °C
* CCc1cccc(NC(=O)NC2CC(C3CCCCC3)c3ccccc3N(CC(=O)NC(C)(C)C)C2=O)c1 (stereo unspecified) | 145 to 155 °C
* O=[N+]([O-])c1ccccc1NCc1cc(F)cc(F)c1 | 104 to 105 °C
* COc1cccc(CNc2cc(C(N)=O)c([N+](=O)[O-])cc2[N+](=O)[O-])c1 | 222 to 224 °C

* * *

melting point listing for selected compounds.
Measure: melting point

- O=C(Nc1ccc(Cc2nnn[nH]2)cc1)C(F)(F)C(F)(F)C(F)(F)C(F)(F)C(F)(F)C(F)(F)C(F)(F)C(F)F: 188 to 190 °C
- COC(=O)c1ccc(Cn2nc(O)c3ccc(NC(=O)CC4CCCC4)cc32)c(OC)c1: 242 to 245 °C
- Cc1c(O)c(=O)[nH]c2ccccc2c1=O: 252 °C
- O=C(Cc1c[nH]cn1)NC(P(=O)(O)O)P(=O)(O)O: 247 to 250 °C
- CCC(=S)N(c1c(C)cccc1C)C(C)C(C)=S (stereo not given): 88 to 92 °C
- O=C(COc1cccc2ccccc12)c1cc(O)c(O)c([N+](=O)[O-])c1: 198 to 199 °C
- Nc1nc2[nH]c(CCCCc3ccc(C(=O)N[C@@H](CCC(=O)O)C(=O)O)o3)cc2c(=O)[nH]1: 174 to 175 °C
- S=C(NCc1ccccc1)N1CCc2c([nH]c3ccccc23)C1c1ccc2c(c1)OCO2 (stereo not given): 205 to 207 °C
- COC1=CC(=O)CN(C)C1: 71 to 72 °C
- CCOC(=O)c1cnn2c1c(NC1CCCCC1)nc1ccccc12: 132 to 135 °C
